Measured inhibition at 10 µM, listed per entry.
# targetOrSystem: human MAGL (His-hMAGL) (Homo sapiens, UniProt Q99685)
# Construct: made in house; host or cells: Escherichia coli BL21(DE3)
# Sequence (Q99685 1-303): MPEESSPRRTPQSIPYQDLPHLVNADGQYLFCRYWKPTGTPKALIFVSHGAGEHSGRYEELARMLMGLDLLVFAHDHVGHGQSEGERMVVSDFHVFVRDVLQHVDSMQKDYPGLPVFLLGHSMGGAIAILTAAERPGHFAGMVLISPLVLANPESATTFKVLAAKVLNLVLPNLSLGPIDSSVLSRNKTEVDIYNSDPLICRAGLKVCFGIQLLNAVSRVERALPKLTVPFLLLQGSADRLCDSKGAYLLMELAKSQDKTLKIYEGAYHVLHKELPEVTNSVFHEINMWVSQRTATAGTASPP
# test: Measurement of MAGL inhibitory activity by mass spectrometry
# Assay type: biochemical
# experimentalSetup: 10 μM test compound; substrate 2-arachidonylglycerol, arachidonic acid by RapidFire-mass spectrometry
Report as: number unit

molecule	inhibition at 10 µM
Cc1noc(C)c1-c1cccc(N2CC(N3CCN(C(=O)c4nccs4)CC3)CC2=O)c1 (stereo not shown)	99%
O=C(c1nccs1)N1CCN(C2CC(=O)N(c3cccc(-c4cnn5ccccc45)c3)C2)CC1 (stereo not shown)	99%

If you can, please state the reported inhibition at 10 µM value of O=C(c1nccs1)N1CCN(C2CC(=O)N(c3cccc(Nc4ccc(N5CCCC5=O)cc4)c3)C2)CC1 (stereo not shown) .
100%

If you can, please state the reported inhibition at 10 µM value of O=C1COc2ccc(Nc3cccc(N4CC(N5CCN(C(=O)c6nccs6)CC5)CC4=O)c3)cc2N1 (stereo not shown) .
98%

###

# targetOrSystem: human MAGL (His-hMAGL) (Homo sapiens, UniProt Q99685)
# Construct: made in house; host or cells: Escherichia coli BL21(DE3)
# Sequence (Q99685 1-303): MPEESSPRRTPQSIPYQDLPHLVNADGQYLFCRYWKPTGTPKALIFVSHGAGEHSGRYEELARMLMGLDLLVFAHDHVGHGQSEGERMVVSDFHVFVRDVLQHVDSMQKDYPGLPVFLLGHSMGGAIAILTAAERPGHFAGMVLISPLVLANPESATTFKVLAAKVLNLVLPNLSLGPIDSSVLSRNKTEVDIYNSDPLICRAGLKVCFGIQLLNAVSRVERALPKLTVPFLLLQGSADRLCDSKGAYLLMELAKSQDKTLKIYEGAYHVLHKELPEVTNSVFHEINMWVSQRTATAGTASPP
# test: Measurement of MAGL inhibitory activity by mass spectrometry
# Assay type: biochemical
# experimentalSetup: MAGL inhibitory rate, test compound 10 μM, His-hMAGL, substrate 2-arachidonylglycerol, RapidFire-mass spectrometry
measure: inhibition at 10 µM (%)
Write the answer as a number in %, unit excluded.

Known inhibition at 10 µM results, listed for orientation:
compound	unitAnnotation	inhibition at 10 µM
O=C(c1nccs1)N1CCN(C2CC(=O)N(c3cccc(-c4cccc5ccoc45)c3)C2)CC1 (stereo not shown)	%	104
Cc1nc(C)c(-c2ccc(N3CC(N4CCN(C(=O)c5nccs5)CC4)CC3=O)cc2)s1 (stereo not shown)	%	97
O=C(c1nccs1)N1CCN(C2CC(=O)N(c3cccc(-c4nc(C(F)(F)F)cs4)c3)C2)CC1 (stereo not shown)	%	98
O=C(c1nccs1)N1CCN(C2CC(=O)N(c3cccc(-c4cccc5nccn45)c3)C2)CC1 (stereo not shown)	%	99
O=C(c1nccs1)N1CCN(C2CC(=O)N(c3ccc4c(c3)CCN4c3ccnc(C(F)(F)F)c3)C2)CC1 (stereo not shown)	%	98

If you can, please state the reported inhibition at 10 µM value of COc1nccc(C)c1-c1cccc(N2CC(N3CCN(C(=O)c4nccs4)CC3)CC2=O)c1 (stereo not shown) .
100

If you can, please state the reported inhibition at 10 µM value of CN1C(=O)Cc2cccc(-c3cccc(N4CC(N5CCN(C(=O)c6nccs6)CC5)CC4=O)c3)c21 (stereo not shown) .
100

If you can, please state the reported inhibition at 10 µM value of Cc1nn(C)c(C)c1-c1cccc(N2CC(N3CCN(C(=O)c4nccs4)CC3)CC2=O)c1 (stereo not shown) .
101

If you can, please state the reported inhibition at 10 µM value of O=C(c1nccs1)N1CCN(C2CC(=O)N(c3ccc4c(c3)CCN4C(=O)CC(F)(F)F)C2)CC1 (stereo not shown) .
95

If you can, please state the reported inhibition at 10 µM value of COc1ccc(CC(=O)N2CCc3cc(N4CC(N5CCN(c6ncccn6)CC5)CC4=O)ccc32)cn1 (stereo not shown) .
80

If you can, please state the reported inhibition at 10 µM value of O=C(c1nccs1)N1CCN(C2CC(=O)N(c3cccc(-c4cccnc4Cl)c3)C2)CC1 (stereo not shown) .
101

If you can, please state the reported inhibition at 10 µM value of Cc1cccc(-c2ccc(N3CC(N4CCN(C(=O)c5nccs5)CC4)CC3=O)cc2)c1 (stereo not shown) .
101

If you can, please state the reported inhibition at 10 µM value of O=C(c1nccs1)N1CCN(C2CC(=O)N(c3cccc(-c4cc(Cl)ccc4Cl)c3)C2)CC1 (stereo not shown) .
101

If you can, please state the reported inhibition at 10 µM value of O=C(c1nccs1)N1CCN(C2CC(=O)N(c3cccc(-c4cnccc4Cl)c3)C2)CC1 (stereo not shown) .
101

If you can, please state the reported inhibition at 10 µM value of O=C(O)c1ccc(-c2cccc(N3CC(N4CCN(C(=O)c5nccs5)CC4)CC3=O)c2)cc1 (stereo not shown) .
91

If you can, please state the reported inhibition at 10 µM value of O=C(c1nccs1)N1CCN(C2CC(=O)N(c3cc(-c4ccccc4F)c4[nH]ccc4c3)C2)CC1 (stereo not shown) .
101
